test: yeast display, Sf9 membrane polyspecificity reagent, FACS + sequencing; frameworks hold sequencing errors
recorded endpoint: polyreactivity (PSR sort gate)

Would you please look over these solved cases?
query: For the sequence `QVQLVESGGGLVQAGGSLRLSCAASGRIFVDNAMGWYRQAPGKERELVATITSTGSTNYADSVKGRFTISRDNAKNTVYLQMNSLKPEDTAVYYCADGYYPYWGQGTQVTVSS` , give its measured polyreactivity (PSR sort gate) value.
result: low polyreactivity

query: Read off the recorded polyreactivity (PSR sort gate) for `QVQLVESGGGLVQAGGSLRLSCAASGSTFSRYAMGWYRQAPGKERELVAAISWGGNTYYADSVKGRFTISRDNAKNTVYLQMNSLKPEDTAVYYCNRYSKLYNTMDYWGQGTQVTVSS`
result: high polyreactivity

query: Name the recorded polyreactivity (PSR sort gate) of the item `QVQLVESVGGLVQAGGTLSLSCAASGFTFRNYAMGWYRQAPRKEREFVAAISRRGGSTYYADSVKGRITISRDNAKNTVYLQINSLKPEDSAVYYCATEPGKQNTYRMDYCGQGTQVTVSS` in your answer.
result: high polyreactivity

query: Tell me measured polyreactivity (PSR sort gate) for `QVQLVESGGGLVQAGGSLRLSCAASGRIFSRYAMGGYRQAPGTERELVAAINNGGSTYYADSVKGRFTISRDNAKNTVYLQMNSLKPEDTAVYYCAKLWWSNFKPVEYWGQGTQVTVSS` please.
result: low polyreactivity

query: Using the record for `QVQLVESGGGLVQARGSLRLSCAASGSTLTRNALGWYRQAPGKERELVAAITQRGGSTYYADSVKGRFTISRDNGKNTVYFQMNSLKPEDTAVYYCAKVPSVKYRSIWVLPEYGWGQGTQVTVSS` , state its measured polyreactivity (PSR sort gate).
result: high polyreactivity

query: State its polyreactivity (PSR sort gate): `QVQLVESGGGLVQAGGSLRLSCAASGRTLARNAMGWYRQAPGKERELVASINGRTTRTYYADSVKGRFTISRDNAKNTVYLQMNSLKPADTAVYYCAAAVRYRKYNYWGQGTQVTVSS`
result: high polyreactivity

query: Name the recorded polyreactivity (PSR sort gate) of the item `HVQLVESGGGLVQAGGSLRLSCAASGRIFWYYTMGWSRQAPGKERELVASINSDSGTYYADSVKGRFTISRDNAKNTVYLQMNRLKPEDTAVYYCTRDSESDANTFTTSGIDEPYDYWGQGTQVTVSS` in your answer.
result: low polyreactivity

query: Note down polyreactivity (PSR sort gate) recorded for `QVQLVESGGGLVQAGGSLRLSCAASGSTFRYYAMGWYRQAPGKERELVAAITYRATSTYYADSVEGRFTISRDNAKNTVYLQMNSLKPEYTAVYYCAAYSTYSRSDYWGQGTQVTVSS`
result: high polyreactivity

query: Look up polyreactivity (PSR sort gate) of `QVQLVESGGGLVQAGGSLRLSCAASGSTSTLYAMGWYRQAPGKERELVAAISKSGGRTYYADSVKGRFTISRDNAKNTVYLQMNSLKPEDTAVYYCAALAVYPRRFDYWGQGTQVTVSS` and report it.
result: high polyreactivity

query: Specify reported polyreactivity (PSR sort gate) for the sequence shown: `QVQHVESGGGLVQAGGSLRLSCAASGSTFKYYAMGWSRQAPGKERELVAAISLSGGRTSYADSVKGRFTISRDNAKNTVYLQMNSLKPVDTAVYYCAAASYFPRFNYWGQGTQVTVSS`
result: high polyreactivity

***
query: # return recorded polyreactivity (PSR sort gate) for input `QVQLVESGGGLVQAGGSLRLSCASSGFTLYANAMGWYRQAPGKERELVADISESGSSTSYADSVKGRFTISRDNAKNTVYLQMKSLKPEDTAVYYCYDYWVQGTQVTVSS`
result: low polyreactivity
